- Measurement description: NCI Yeast Anticancer Drug Screen. Data for the bub3 strain (AID 167)
- Experimental context: S. cerevisiae bub3 mutant strain, at 50.0 µM, stronger effect = higher value
About 79,000 compounds went through this panel and 15% of them were active in at least one assay; those are over-represented in the sample as a whole.
Quick reference: growth inhibition of the listed items.
API: value field is a number in %; no unit string.

CCSc1ccc(C)cc1	-8.1

Prompt: # input molecule: `COc1nc2[nH]ccc2c(=O)[nH]1` ; wanted: its growth inhibition
Completion: -11.3

Prompt: Proceed to `O=C(Nc1ccccc1Cl)c1ccc([N+](=O)[O-])cc1`
Completion: 11.2

Prompt: // next record `O=C(N/N=C/c1cc(Br)cc(Br)c1O)c1ccccc1`
Completion: -2.05

Prompt: What do you have for CC1CCCCN1Cc1ccccc1COC(=O)c1cccc(Br)c1 (centres undefined) ?
Completion: 16.1

Prompt: Same read-out for CC(C)COC1CN=NN1/C=C1\CCOC1=O (centres undefined) ?
Completion: 24.2

Prompt: Lookup `Cc1noc(C)c1CCCOC1COc2ccccc2OCCOCCOc2ccccc2OC1`
Completion: -9.15

Prompt: Now give it for `N#CCC(=O)N1CCCC1` too.
Completion: -14.3
